Some molecules, each annotated with its measured pIC50.
Target: PPK12 (Drosophila melanogaster)
Construct: cRNA expressed alone in Xenopus laevis oocytes; DEG/ENaC family members are trimers
Sequence (Q9W250 1-569): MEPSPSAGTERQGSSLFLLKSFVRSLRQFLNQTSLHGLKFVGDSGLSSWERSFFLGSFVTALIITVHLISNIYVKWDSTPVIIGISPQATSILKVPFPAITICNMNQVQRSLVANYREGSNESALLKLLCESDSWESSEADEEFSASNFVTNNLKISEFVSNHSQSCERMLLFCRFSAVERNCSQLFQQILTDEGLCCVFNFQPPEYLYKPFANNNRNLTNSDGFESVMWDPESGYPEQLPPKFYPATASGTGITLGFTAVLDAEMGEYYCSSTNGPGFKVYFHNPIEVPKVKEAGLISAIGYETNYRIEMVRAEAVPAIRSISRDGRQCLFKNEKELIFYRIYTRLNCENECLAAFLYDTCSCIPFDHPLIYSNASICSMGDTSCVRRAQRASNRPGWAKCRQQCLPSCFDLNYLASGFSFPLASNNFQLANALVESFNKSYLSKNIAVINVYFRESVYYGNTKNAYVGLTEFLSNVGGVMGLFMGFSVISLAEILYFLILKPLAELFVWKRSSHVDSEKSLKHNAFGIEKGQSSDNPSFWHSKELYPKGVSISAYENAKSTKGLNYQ
Test: two-electrode voltage clamp of Xenopus oocytes, block of NMDG-sensitive constitutive current
pIC50 here: minus log base 10 of the concentration, concentration in moles per litre.

{"molecule": "N=C(N)c1ccc(/N=N/Nc2ccc(C(=N)N)cc2)cc1", "target desc": "PPK12 (Drosophila melanogaster)", "data value": 3.96}

Could you tell me which pIC50 is on file for N=C(N)NC(=O)c1nc(Cl)c(N)nc1N [amiloride] ? 3.66
